Reported Euclidean distance values for a set of compounds
# Test system: A549
# assay notes: Euclidean distance of Cell Painting phenotypic profile (signed KS, 77 features) to DMSO centroid (dimensionless distance); 5 or 10 uM (library dependent); higher = stronger phenotypic change vs DMSO (phenoactivity)
# stated conditions: 48 h
Where a name gives a salt, the structure may show the parent alone.

{"compound": "CN(CCOc1ccc(CC2SC(=O)NC2=O)cc1)c1ccccn1 (centres undefined) [Rosiglitazone maleate]", "Euclidean distance": 0.896}
{"compound": "CCOC(=O)C1=C(C)NC(C)=C(C(=O)OCC)C1c1ccccc1/C=C/C(=O)OC(C)(C)C", "Euclidean distance": 0.916}
{"compound": "C#C[C@]1(O)CC[C@H]2[C@@H]3CCC4=CC(=O)CC[C@@H]4[C@H]3CC[C@@]21CC", "Euclidean distance": 0.81}
{"compound": "CCNC(=O)[C@@H]1CCCN1C(=O)[C@H](CCCN=C(N)N)NC(=O)[C@H](CC(C)C)NC(=O)[C@@H](C)NC(=O)[C@H](Cc1ccc(O)cc1)NC(=O)[C@H](CO)NC(=O)[C@H](Cc1c[nH]c2ccccc12)NC(=O)[C@H](Cc1cnc[nH]1)NC(=O)[C@@H]1CCC(=O)N1 [Alarelin Acetate]", "Euclidean distance": 1.38}
{"compound": "Cc1ccc(C(=O)Nc2ccc(Oc3cc4cnn(C)c4cc3-c3cn[nH]c3)c(F)c2)c(=O)n1-c1ccc(F)cc1", "Euclidean distance": 1.59}
{"compound": "Nc1nnc(-c2cccc(Cl)c2Cl)c(N)n1", "Euclidean distance": 1.05}
{"compound": "COc1ccc2cc1Oc1ccc(cc1)C[C@H]1c3cc(c(OC)cc3CCN1C)Oc1c(OC)c(OC)cc3c1[C@H](C2)N(C)CC3", "Euclidean distance": 4.1}
{"compound": "C[C@H](O)[C@H](O)[C@H]1CNc2[nH]c(N)nc(=O)c2N1 [Sapropterin Dihydrochloride]", "Euclidean distance": 0.501}
{"compound": "COc1ccc2[nH]c([S+]([O-])Cc3ncc(C)c(OC)c3C)nc2c1 (centres undefined)", "Euclidean distance": 2.83}
{"compound": "CC(C)NCC(O)c1ccc(NS(C)(=O)=O)cc1 (centres undefined)", "Euclidean distance": 0.865}
{"compound": "CC1(C)S[C@@H]2[C@H](NC(=O)C(C(=O)O)c3ccccc3)C(=O)N2[C@H]1C(=O)O (some centres undefined) [Carbenicillin disodium]", "Euclidean distance": 1.07}
{"compound": "CCOc1ccc2c(-c3cccc(F)c3)nn(CC(=O)N(C)c3ccc4nc(C)oc4c3)c(=O)c2c1", "Euclidean distance": 0.995}
{"compound": "COC(=O)Nc1nc2cc(C(=O)c3ccccc3)ccc2[nH]1", "Euclidean distance": 3.03}
{"compound": "CC(CNC(=O)c1cccnc1)NC(=O)c1cccnc1 (centres undefined)", "Euclidean distance": 0.748}
{"compound": "OCc1ccccc1", "Euclidean distance": 0.876}
{"compound": "Cc1ccc(C(=O)C(C)CN2CCCCC2)cc1 (centres undefined) [Tolperisone HCl]", "Euclidean distance": 0.611}
{"compound": "C[C@H]1[C@H](OC(=O)CCC(=O)O)O[C@@H]2O[C@@]3(C)CC[C@H]4[C@H](C)CC[C@@H]1[C@@]24OO3 [Artesunate]", "Euclidean distance": 2.06}
{"compound": "CC(C)(C)C(=O)OCOC(=O)[C@@H]1N2C(=O)[C@@H](/N=C/N3CCCCCC3)[C@H]2SC1(C)C [Pivmecillinam hydrochloride]", "Euclidean distance": 1.69}
{"compound": "CO[C@@H]1[C@@H](O[C@@H]2O[C@H](C)[C@@H](O[C@H]3C[C@@](C)(O)[C@@H](O)[C@H](C)O3)[C@H](N(C)C)[C@H]2O)[C@@H](CC=O)C[C@@H](C)[C@@H](O[C@H]2CC[C@H](N(C)C)[C@@H](C)O2)/C=C/C=C/C[C@@H](C)OC(=O)C[C@H]1OC(C)=O", "Euclidean distance": 1.5}
{"compound": "NCCc1c[nH]cn1 [Histamine 2HCl]", "Euclidean distance": 0.957}
{"compound": "CN(C)CCc1c[nH]c2ccc(C[C@H]3COC(=O)N3)cc12", "Euclidean distance": 1.23}
{"compound": "CC(C)N(CCCNC(=O)Nc1ccc(C(C)(C)C)cc1)C[C@H]1O[C@@H](n2ccc3c(N)ncnc32)[C@H](O)[C@@H]1O", "Euclidean distance": 0.769}
{"compound": "CCN(CCCc1ccccc1)CCCc1ccccc1 [Alverine Citrate]", "Euclidean distance": 1.06}
{"compound": "C[N+]1(C)[C@@H]2C[C@@H](OC(=O)C(O)(c3cccs3)c3cccs3)C[C@H]1[C@@H]1O[C@@H]12 [Tiotropium Bromide hydrate]", "Euclidean distance": 0.676}
{"compound": "COC(=O)C[C@](O)(CCCC(C)(C)O)C(=O)O[C@@H]1C(OC)=C[C@]23CCCN2CCc2cc4c(cc2[C@H]13)OCO4", "Euclidean distance": 3.34}
{"compound": "COc1cc(F)c(C(C)C)cc1-c1ccc(C(F)(F)F)cc1CN1C(=O)O[C@H](c2cc(C(F)(F)F)cc(C(F)(F)F)c2)[C@@H]1C", "Euclidean distance": 0.903}
{"compound": "NC(=O)c1ccc(-c2nc(-c3ccccn3)c(-c3ccc4c(c3)OCO4)[nH]2)cc1", "Euclidean distance": 2.49}
{"compound": "C#C[C@]1(O)CC[C@H]2[C@@H]3CCC4=CC(=O)CC[C@@H]4[C@H]3CC[C@@]21C", "Euclidean distance": 0.864}
{"compound": "COCCOC(=O)C1=C(C)NC(C)=C(C(=O)OC/C=C/c2ccccc2)C1c1cccc([N+](=O)[O-])c1 (centres undefined)", "Euclidean distance": 1.04}
